# Tested on: F1*sub RNA substrate (template-directed ligation)
# Method summary: fraction ligated after 30 min (ligated reads / total reads); higher = more ligase activity; sequences stand for … in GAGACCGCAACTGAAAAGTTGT…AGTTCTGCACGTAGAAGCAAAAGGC
# Assay context: 42 °C
Readout type: fraction ligated
Number only, please.

TATACTTGTCGTAAGACACTTTGGAGGGTTA [3d943] :: 0.00392
TTATTGTCGTAAGACACTTTGGATGGGTTGA [3d278] :: 0.076
TATCACTTTCGTAAACACTTTGGAGGGTTGA [3d1525] :: 0.0183
ATCACTTGTCGTAAACACTTTGGATGGGTTG [3d220] :: 0.75
TACATTTCGTAAGACACTTTGGATGGGTTGA [3d548] :: 0.0271

Which measured fraction ligated value corresponds to TATCACTTGTCGTGACACTTTGGTGGGTTGA [3d1988] ?
0.135

Which measured fraction ligated value corresponds to TATCACTTGCGTAAGACACTGGATGGGTTGA [3d1681] ?
0.799
